# IC50 per entry
# system: HLA-A*0203 (human)
# procedure.text: competitive inhibition of 125I-labelled standard peptide binding to purified HLA
# experimental.setup: remark: other sources report otherwise

>  <binder>
MLLRLSEPAEV (modifications not checked) [Peptide 1389.12, … (PSA.118.V11)]

>  <IC50 (nM)>
115

$$$$
>  <binder>
TLSVTWIGV (modifications not checked) [Peptide 60.0217, … (PSA.5.V9)]

>  <IC50 (nM)>
40

$$$$
